Recorded values, source patent US20240208986A1.

Biological target: RIPK1 (recombinant GST-RIPK1 kinase domain, residues 1-327) (Homo sapiens (Human))
Assay: RIPK1-ADP-Glo Enzymatic Assay
Details: 25 nM GST-RIPK1, 300 μM ATP, 3 μM dephosphorylated-MBP; 30 minutes pre-incubation, 150 minutes reaction; ten-point titration
pIC50: −log10 of the molar value.
measurement_type: pIC50

compound	assay_value
C[C@H]1CC[C@@](C)(C(=O)N2C[C@@H]3C[C@H]2c2ccccc2O3)C1(C)C (racemic) [Compound 1-32]	6.41
CC1(C(=O)N2C[C@@H]3C[C@H]2c2ccccc2O3)CC(F)(F)C1 [Compound 1-31]	6.80
O=C(C1CCCCC1)N1C[C@@H]2C[C@H]1c1ccccc1O2 [Compound 1-8]	6.19
C[C@@]12C[C@@H](c3ccccc3O1)N(C(=O)C13CCC(CC1)C3)C2 (single isomer, unassigned) [Compound 3-7]	5.18
CC(C)(C(=O)N1C[C@@H]2C[C@H]1c1cc(F)ccc1O2)C(F)F [Compound 2-7]	7.60
CC(CF)(CF)C(=O)N1C[C@@H]2C[C@H]1c1ccccc1O2 [Compound 1-33]	6.06
CC(C)(C(=O)N1C[C@@H]2C[C@H]1c1ccc(C#N)cc1O2)C(F)F [Compound 2-22]	6.41
CC(C)(C(=O)N1C[C@@H]2C[C@H]1c1cc(F)cc(C#N)c1O2)C(F)F [Compound 2-11]	7.59

---

Molecular target: RIPK1 (recombinant GST-RIPK1 kinase domain, residues 1-327) (Homo sapiens (Human), UniProt Q13546)
Sequence (Q13546 1-327): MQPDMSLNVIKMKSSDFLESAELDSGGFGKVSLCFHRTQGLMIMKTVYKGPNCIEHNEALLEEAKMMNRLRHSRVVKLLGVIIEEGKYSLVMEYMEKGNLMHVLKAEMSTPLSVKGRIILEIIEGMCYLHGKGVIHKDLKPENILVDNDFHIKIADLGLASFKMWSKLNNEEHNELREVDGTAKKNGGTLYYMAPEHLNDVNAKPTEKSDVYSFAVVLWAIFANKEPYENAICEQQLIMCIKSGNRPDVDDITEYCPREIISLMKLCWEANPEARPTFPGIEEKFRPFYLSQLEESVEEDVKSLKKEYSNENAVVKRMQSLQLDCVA
Test: RIPK1-ADP-Glo Enzymatic Assay
Settings: 25 nM GST-RIPK1, 300 μM ATP, 3 μM dephosphorylated-MBP; 30 minutes pre-incubation, 150 minutes reaction; ten-point titration

compound	IC50 (nM)
COc1ccc(CC(C)(C)C(=O)N2C[C@@H]3C[C@H]2c2ccccc2O3)cc1	887
O=C(N1C[C@@H]2C[C@H]1c1cc(F)ccc1O2)C12CCC(CC1)C2	15
O=C(N1C[C@H]2Cc3ccccc3[C@@H]1C2)C12CCC(C(F)(F)F)(CC1)C2 (single isomer, unassigned)	267
CC(C)(C)C(=O)N1C[C@@H]2C[C@H]1c1cc(F)cc(F)c1O2	60
O=C(N1C[C@@H]2C[C@H]1c1ccccc1O2)C12CCC(C(F)(F)F)(CC1)CC2	510
CC(C)(C(=O)N1C[C@@H]2C[C@H]1c1ccccc1O2)C1CCC1	244
O=C(C1CCN(c2ncnc3scnc23)CC1)N1C[C@@H]2C[C@H]1c1ccccc1O2	124
CC(C)(C(=O)N1C[C@]2(C)C[C@H]1c1ccccc1O2)C(F)F	14700
CC(F)(F)C(C)(C)C(=O)N1C[C@@H]2C[C@H]1c1cc(F)ccc1O2	23
CC(C)(CC#N)C(=O)N1C[C@@H]2C[C@H]1c1cc(F)cc(F)c1O2	16
C[C@@]12C[C@@H](c3ccccc3O1)N(C(=O)C13CCC(F)(CC1)C3)C2 (single isomer, unassigned)	3980
CC(C(=O)N1C[C@@H]2C[C@H]1c1ccccc1O2)(C(F)(F)F)C(F)(F)F	69
CC(C)(CC#N)C(=O)N1C[C@H]2Cc3ccccc3[C@@H]1C2	1490
CC(F)(F)C(C)(C)C(=O)N1C[C@@H]2C[C@H]1c1cccc(F)c1O2	20
CC(F)(F)C1(C(=O)N2C[C@@H]3C[C@H]2c2ccccc2O3)CCC1	86
CC12CC(C(=O)N3C[C@@H]4C[C@H]3c3ccccc3O4)(CO1)C2	922

---

Target: RIPK1 (recombinant GST-RIPK1 kinase domain, residues 1-327) (Homo sapiens (Human), UniProt Q13546)
Experiment: RIPK1-ADP-Glo Enzymatic Assay
Settings: 25 nM GST-RIPK1, 300 μM ATP, 3 μM dephosphorylated-MBP; 30 minutes pre-incubation, 150 minutes reaction; ten-point titration
pIC50: −log10 of the molar value.
Label scheme for pIC50: lower than 7 is false, 7 and above is true.

compound	discrete_label
CC(C)(C(=O)N1C[C@@H]2C[C@H]1c1cccc(Cl)c1O2)C(F)F	true
CC(F)(F)C(C)(C)C(=O)N1C[C@@H]2C[C@H]1c1ccccc1O2	true
CC(C)(C)C(=O)N1C[C@@H]2C[C@H]1c1cccc(F)c1O2	true
O=C(N1C[C@@H]2C[C@H]1c1ccccc1O2)C12CCC(CC1)CC2	true
O=C(N1C[C@@H]2C[C@H]1c1ccccc1O2)C12CC(C(F)(F)F)(C1)C2	false
CC(C)(C)C(=O)N1C[C@H]2Cc3ccccc3[C@@H]1C2	false
O=C(N1C[C@@H]2C[C@H]1c1ccc(Cl)cc1O2)C12CCC(F)(CC1)C2	true
C[C@@]12C[C@@H](c3ccccc3O1)N(C(=O)C13CCC(C(F)(F)F)(CC1)C3)C2 (single isomer, unassigned)	false
CC(C)(COC(F)(F)F)C(=O)N1C[C@@H]2C[C@H]1c1ccccc1O2	false
CC(C)(C)C(=O)N1C[C@@H]2C[C@H]1c1cc(F)ccc1O2	true
O=C(C1CCCCC12CC2)N1C[C@@H]2C[C@H]1c1ccccc1O2 (mixture of isomers)	false
CC1(C(=O)N2C[C@@H]3C[C@H]2c2ccccc2O3)CCCCC1	true
CC1(C(=O)N2C[C@@H]3C[C@H]2c2ccccc2O3)CCN(c2cc(C#N)ncn2)CC1	false
N#Cc1cc(N2CCC(C(=O)N3C[C@@H]4C[C@H]3c3ccccc3O4)CC2)ncn1	false

---

Biological target: RIPK1 (recombinant GST-RIPK1 kinase domain, residues 1-327) (Homo sapiens (Human))
Assay: RIPK1-ADP-Glo Enzymatic Assay
Settings: 25 nM GST-RIPK1, 300 μM ATP, 3 μM dephosphorylated-MBP; 30 minutes pre-incubation, 150 minutes reaction; ten-point titration
Documented IC50 across a set of molecules

molecule	IC50 (nM)
CC(C)(CC#N)C(=O)N1C[C@@H]2C[C@H]1c1ccccc1O2	56
CC1(C)C2CCC1(C(=O)N1C[C@@H]3C[C@H]1c1ccccc1O3)CC2	168
CC(C)(C(=O)N1C[C@@H]2C[C@H]1c1cccc(C#N)c1O2)C(F)F	18
O=C(N1C[C@@H]2C[C@H]1c1ccccc1O2)C1(F)CCCCC1	381
CC(C)(C(=O)N1C[C@@H]2C[C@H]1c1cc(C#N)ccc1O2)C(F)F	158
CC1(C(=O)N2C[C@@H]3C[C@H]2c2ccccc2O3)CCC1	97
O=C(NCc1ccc(Cl)cc1)C(=O)N1CC2C[C@H]1c1ccccc1O2 (stereo in doubt)	863
N#CC12CCC(C(=O)N3C[C@@H]4C[C@H]3c3cc(F)cc(F)c3O4)(C1)C2	19

---

Molecular target: RIPK1 (recombinant GST-RIPK1 kinase domain, residues 1-327) (Homo sapiens (Human))
Assay: RIPK1-ADP-Glo Enzymatic Assay
Settings: 25 nM GST-RIPK1, 300 μM ATP, 3 μM dephosphorylated-MBP; 30 minutes pre-incubation, 150 minutes reaction; ten-point titration

smiles_notation	IC50 / nM
CC(C)(C(=O)N1C[C@@H]2C[C@H]1c1ccccc1O2)C(F)F	61
C[C@@H]1[C@@H]2C[C@@H](c3ccccc3O2)N1C(=O)C(C)(C)C	132
Cc1ccc2c(c1)[C@@H]1C[C@@H](CN1C(=O)C(C)(C)C(F)F)O2	143
N#Cc1cc(N2CCC(F)(C(=O)N3C[C@@H]4C[C@H]3c3ccccc3O4)CC2)ncn1	117

---

Molecular target: RIPK1 (recombinant GST-RIPK1 kinase domain, residues 1-327) (Homo sapiens (Human))
Test: RIPK1-ADP-Glo Enzymatic Assay
Assay type: biochemical
Conditions: 25 nM GST-RIPK1, 300 μM ATP, 3 μM dephosphorylated-MBP; 30 minutes pre-incubation, 150 minutes reaction; ten-point titration
Documented IC50 across a set of compounds

compound	IC50, nM
CC(C)(C(=O)N1C[C@@H]2C[C@H]1c1ccccc1O2)C(F)(F)F [Compound 1-18]	73
O=C(N1C[C@@H]2C[C@H]1c1ccccc1O2)C1(C(F)F)CCCC1 [Compound 1-13]	104
CC1(C(=O)N2C[C@@H]3C[C@H]2c2cccc(F)c2O3)CC(C#N)C1 (stereo partly drawn) [Compound 2-30]	75
